The entries below are paired with their reported PBM binding z-score.
- System: PPARa:RXRa (NR concentration 270 nM, RXRa partner concentration 90 nM)
- protocolNotes: PBM binding z-score (relative to random genomic background probes); higher = stronger binding; sequences stand for … in GC…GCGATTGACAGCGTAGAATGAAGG

- macromoleculeSequence: "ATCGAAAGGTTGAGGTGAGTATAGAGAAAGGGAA"
  PBM binding z-score: 1.86
- macromoleculeSequence: "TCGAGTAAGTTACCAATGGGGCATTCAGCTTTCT"
  PBM binding z-score: 0.13
- macromoleculeSequence: "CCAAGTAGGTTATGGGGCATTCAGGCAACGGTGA"
  PBM binding z-score: 2.93
- macromoleculeSequence: "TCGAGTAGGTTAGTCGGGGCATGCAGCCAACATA"
  PBM binding z-score: 0.523
- macromoleculeSequence: "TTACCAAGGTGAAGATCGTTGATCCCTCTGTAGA"
  PBM binding z-score: 1.14
- macromoleculeSequence: "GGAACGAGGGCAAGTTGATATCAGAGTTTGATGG"
  PBM binding z-score: 1.73
- macromoleculeSequence: "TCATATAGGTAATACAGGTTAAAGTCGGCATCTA"
  PBM binding z-score: 2.28
- macromoleculeSequence: "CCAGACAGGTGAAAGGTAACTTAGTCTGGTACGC"
  PBM binding z-score: 3.31
- macromoleculeSequence: "ACAGACAGGTGAGTGATGGTAACTCAGCTGGACG"
  PBM binding z-score: -0.213
- macromoleculeSequence: "TAGCCTAGGGCATTGGGCCAGTATAGTACGCATC"
  PBM binding z-score: -0.0901
- macromoleculeSequence: "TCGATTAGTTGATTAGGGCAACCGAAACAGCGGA"
  PBM binding z-score: 0.322
- macromoleculeSequence: "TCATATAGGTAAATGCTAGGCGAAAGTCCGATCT"
  PBM binding z-score: 0.932
- macromoleculeSequence: "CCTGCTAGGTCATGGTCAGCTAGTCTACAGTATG"
  PBM binding z-score: 3.45
- macromoleculeSequence: "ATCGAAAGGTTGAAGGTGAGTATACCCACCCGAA"
  PBM binding z-score: 2.36
- macromoleculeSequence: "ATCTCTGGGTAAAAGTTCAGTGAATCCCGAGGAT"
  PBM binding z-score: 4.12
- macromoleculeSequence: "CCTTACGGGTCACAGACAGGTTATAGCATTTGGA"
  PBM binding z-score: 5.36
- macromoleculeSequence: "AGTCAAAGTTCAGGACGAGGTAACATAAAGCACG"
  PBM binding z-score: 3.45
- macromoleculeSequence: "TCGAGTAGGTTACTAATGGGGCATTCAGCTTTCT"
  PBM binding z-score: 0.717
- macromoleculeSequence: "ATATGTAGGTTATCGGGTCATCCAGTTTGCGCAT"
  PBM binding z-score: 5.15
- macromoleculeSequence: "CCTGATAGGTCATGGTCAGCTAATCTACAGTATG"
  PBM binding z-score: 4.96
- macromoleculeSequence: "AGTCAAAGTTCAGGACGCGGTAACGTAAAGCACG"
  PBM binding z-score: 3.08
- macromoleculeSequence: "CCAGACAGGTGAAAGGTAACTCATTCTGGTACGC"
  PBM binding z-score: 3.51
- macromoleculeSequence: "AGTCAAAGTTCATCGAGGTAACGTAAGATATGCT"
  PBM binding z-score: 5.27
- macromoleculeSequence: "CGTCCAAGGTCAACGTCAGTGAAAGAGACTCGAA"
  PBM binding z-score: 5.64
- macromoleculeSequence: "GCTTACGGGTCAAAGGATATAGCATGAATAGAAT"
  PBM binding z-score: 5.37
- macromoleculeSequence: "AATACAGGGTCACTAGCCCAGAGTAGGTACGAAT"
  PBM binding z-score: 5.41
